test: xn = mol fraction of the nth substance listed, in the solute-free solvent; settings: 278.15 K; x2 = 0.6
PARAMETER: solubility (g/100 g solution)

Please review the entries below; each comes with its answer.
compound="CCOC(=O)OC1=C(c2cc(C)ccc2C)C(=O)NC12CCC(OC)CC2 (stereo not given) + CO + O" reported_value=1.47
compound="Cc1c(Br)c(=O)n(C2CCCC2)c2nc(Cl)ncc12 + CCOC(C)=O + CCO" reported_value=0.438
compound="Cc1ncc(CO)c(CO)c1O.Cl + O + CC(C)O" reported_value=2.56
compound="Cc1ncc(CO)c(CO)c1O.Cl + O + CCCO" reported_value=3.83
compound="CCOC(=O)OC1=C(c2cc(C)ccc2C)C(=O)NC12CCC(OC)CC2 (stereo not given) + CC(C)=O + O" reported_value=7.51

Each compound below has a reported value. Please supply its solubility (g/100 g solution).
1. Cc1c(Br)c(=O)n(C2CCCC2)c2nc(Cl)ncc12 + C1CCOC1 + CCO
2. Cc1c(Br)c(=O)n(C2CCCC2)c2nc(Cl)ncc12 + CC1=CC(=O)CC(C)(C)C1 + CC(C)O
3. CCOC(=O)OC1=C(c2cc(C)ccc2C)C(=O)NC12CCC(OC)CC2 (stereo not given) + CCO + O
4. CCOC(=O)OC1=C(c2cc(C)ccc2C)C(=O)NC12CCC(OC)CC2 (stereo not given) + CC(C)O + O
5. Cc1ncc(CO)c(CO)c1O.Cl + O + CC#N

OUTPUT:
1. 2.56
2. 0.364
3. 2.83
4. 3.11
5. 5.82
